# Tested on: CYP1A1
# assay_notes: induction of liver metabolic enzyme, liver microsome probe substrate activity after 7-day administration
# Type: in vivo, rat
# experimental_setup: 60 mg/kg intragastric once a day for 7 days, rat liver microsome, solvent group = 1
readout_name: Relative enzyme activity CYP1A1
Enter the number alone.

The following compounds have reported results that may help.
>>> print(df.to_string())
                                   compound  recorded_number
0  CCCCC1=CCC[C@@]2(C)CC[C@@H]3C[C@]12OC3(C)C [BAF, 4-butyl-α-agarofuran, reference compound]              3.8
1  [2H]C1=C(CCCC)[C@@]23C[C@@H](CC[C@]2(C)CC1([2H])[2H])C(C)(C)O3              1.4
2  [2H]C([2H])([2H])C([2H])([2H])C([2H])([2H])C([2H])([2H])C1=CCC[C@@]2(C)CC[C@@H]3C[C@]12OC3(C)C              1.3
3  [2H]C1([2H])C=C(CCCC)[C@@]23C[C@@H](CC[C@]2(C)C1)C(C)(C)O3 [I-1, d2-BAF]              1.7

Would you kindly look at the next entry?
If you can, please state the reported Relative enzyme activity CYP1A1 value of `[2H]C1([2H])C=C(C([2H])([2H])C([2H])([2H])C([2H])([2H])C([2H])([2H])[2H])[C@@]23C[C@@H](CC[C@]2(C)C1)C(C)(C)O3` .
1.1
